The following compounds are listed with their measured cytotoxicity increase values.
Assay: A CellTox Green Cytotoxicity Assay to monitor cytotoxicity in HEK293 cells - 40 hour (AID 1224871); further: nearly all actives have a fitted effect of over 45% in size; on cytotoxicity increase: on the % scale 0 is the no-effect control and ±100 the full control effect
Conditions: CellTox Green fluorescence; series mostly up to 76.8 µM
Results filed as inconclusive are left out. Activity calls are given as the source filed them. The call rests on the fitted dose curve; in most records, active means well fitted activation curve with a large enough effect in the repeat runs; inconclusive means weak or mixed curves; inactive means flat fitted curve, though single readings scatter.

Exercise: Sample O=S(=O)(O)c1cc(S(=O)(=O)O)c2ccc3c(S(=O)(=O)O)cc(S(=O)(=O)O)c4ccc1c2c43 — what was its cytotoxicity increase?
Solution: -6.93% [at 15.8 µM] (inactive)

Exercise: // query: CCCCCCCCCCCCCCCCCO
Solution: -18.9% [at 15.8 µM] (inactive)

Exercise: // query: O=C=NCc1cccc(CN=C=O)c1
Solution: -14.1% [at 15.8 µM] (inactive)

Exercise: // query: N[C@@H](CSSC[C@H](N)C(=O)O)C(=O)O
Solution: 3.14% [at 0.29 µM] (inactive)

Exercise: // query: CCC(=O)CC(C)CC (stereo unspecified)
Solution: 5.38% [at 0.29 µM] (inactive)

Exercise: // query: C=CC(=C)CC/C=C(\C)CCC=C(C)C
Solution: 4.27% [at 15.8 µM] (inactive)

---

Assay: qHTS assay to test for compound auto fluorescence at 590 nm (red) in HEK293 cells (AID 720679); further: on the % scale 0 is the no-effect control and ±100 the full control effect
Conditions: red autofluorescence 540/590 nm; series mostly up to 91.3 µM
Active and inactive are the calls of the source. The call rests on the fitted dose curve; in most records, active means well fitted curve in the direction sought with a large enough effect in the repeat runs; inconclusive means weak or mixed curves; inactive means flat fitted curve, though single readings scatter.
value_type: fluorescence, % of fluorescent control

compound: C[C@@]12C(=O)OC(=O)[C@]1(C)C1CCC2O1
value_type: fluorescence, % of fluorescent control
result: -0.0987% [at 18.6 µM] (inactive)
--
compound: COC(=O)C1=C(C)NC(C)=C(C(=O)OCCCN2CCC(c3ccccc3)(c3ccccc3)CC2)C1c1cccc([N+](=O)[O-])c1 (stereo unspecified)
value_type: fluorescence, % of fluorescent control
result: inactive
--
compound: CCCCCCCC/C=C\CCCCCCCC(=O)NCc1ccc(O)c(OC)c1
value_type: fluorescence, % of fluorescent control
result: inactive
--
compound: CN(Cc1cc(Br)cc(Br)c1N)C1CCCCC1
value_type: fluorescence, % of fluorescent control
result: inactive
--
compound: CC(C(O)c1ccccc1)N(C)CCOC(c1ccccc1)c1ccccc1 (stereo unspecified)
value_type: fluorescence, % of fluorescent control
result: inactive
--
compound: CCN1CCN(c2cc(-c3ccc(F)cc3)c3c(n2)CCCCCC3)CC1
value_type: fluorescence, % of fluorescent control
result: inactive
--
compound: CN(C)CCCN1c2ccccc2CCc2ccccc21
value_type: fluorescence, % of fluorescent control
result: inactive
--
compound: S=C(SSSSSSC(=S)N1CCCCC1)N1CCCCC1
value_type: fluorescence, % of fluorescent control
result: 0.199% [at 18.6 µM] (inactive)

Exercise: Sample CC(C)(C)c1cc(/C=C2\SC(=N)NC2=O)cc(C(C)(C)C)c1O — what was its fluorescence, % of fluorescent control?
Solution: inactive

Exercise: // query: COc1cc(C=C2CCC/C(=C\c3ccc(O)c(OC)c3)C2=O)ccc1O
Solution: inactive

Exercise: // query: CCCCCCOc1ccc(O)cc1
Solution: inactive

---

The following compounds are listed with their measured activity change, positive = activation values.
Assay: qHTS assay to identify small molecule agonists of the estrogen related receptor (ERR) signaling pathway from Tox21 library (AID 1224849); further: on the % scale 0 is the no-effect control and ±100 the full control effect; nearly all actives have a fitted effect of over 15% in size
Conditions: ERR reporter cell line, ONE-Glo luciferase, 18 h; at 92.4 µM (top of the series) unless noted
Activity calls are given as the source filed them. Calls come from the whole dose curve.

Record excerpt, results attached:
compound: CC(C)(C)c1cc(/C=C2\SC(=N)NC2=O)cc(C(C)(C)C)c1O
result: -57.9% (inactive)
--
compound: CCNc1nc(NC(C)CC)nc(OC)n1 (stereo not drawn)
result: 10.4% (inactive)

Exercise: Sample CCc1cccc(CC)c1NC(=O)C(=O)O — what was its activity change, positive = activation?
Solution: -1.7% (inactive)

Exercise: // query: CC[N+](CC)(CC)Cc1ccccc1
Solution: -4.7% (inactive)

Exercise: // query: CCCCCCCCCCCCCOP(=O)(O)O
Solution: -2% (inactive)

---

Assay: qHTS RealTime-Glo MT Cell Viability Assay in HEK293 cells - 32 hour (AID 1224868); further: nearly all actives have a fitted effect of over 50% in size; further: potency means the concentration at half of the fitted maximal effect
Settings: RealTime-Glo luminescence; series mostly up to 76.8 µM
Records with an inconclusive call do not appear. Calls of active or inactive are those of the source. Calls follow the shape of the dose curve; as a rule, active = well fitted cell-killing curve with a large enough effect in the repeat runs; inconclusive = weak or mixed curves, or effect the other way; inactive = flat fitted curve, though single readings scatter.
value_type: Potency

molecule: CCCCCCCC/C=C/CCCOC(C)=O
result: inactive
--
molecule: O=Cc1ccc(F)cc1
result: inactive
--
molecule: CCC(C)(C)c1cc(O)c(C(C)(C)CC)cc1O
result: 30.9 µM (active)
--
molecule: CCN(CC)c1ccc(N)cc1
result: 22.5 µM (active)
--
molecule: CCC(C)C(=O)OC (centres undefined)
result: inactive
--
molecule: OCCC(O)CO (centres undefined)
result: inactive
--
molecule: CCCCN(CCCC)CCC(O)c1cc2c(Cl)cc(Cl)cc2c2cc(C(F)(F)F)ccc12 (centres undefined)
result: inactive
--
molecule: C=C(C)C(=O)OCCC[Si](Cl)(Cl)Cl
result: inactive

Exercise: Sample CC(C)=CCCC(C)CCOC(=O)C(C)C (centres undefined) — what was its Potency?
Solution: inactive

Exercise: // query: NC1(c2ccc(-c3nc4ccn5c(=O)[nH]nc5c4cc3-c3ccccc3)cc2)CCC1
Solution: 1.9 µM (active)

Exercise: // query: Cc1cc(C)c(C=O)c(C)c1
Solution: inactive

Exercise: // query: Cc1cccc(Br)c1
Solution: inactive

Exercise: // query: c1cc(OCC2CO2)cc(OCC2CO2)c1 (centres undefined)
Solution: 17.2 µM (active)

Exercise: // query: CCNc1nc(NC(C)CC)nc(OC)n1 (centres undefined)
Solution: inactive

---

Assay: qHTS assay to identify small molecule agonists of the TGF-beta/Smad signaling pathway - cell viability counter screen (AID 1346829); further: potency means the concentration at half of the fitted maximal effect; nearly all actives have a fitted effect of over 45% in size
Settings: SBE-bla HEK293T viability, CellTiter-Glo luminescence, 5 h; series mostly up to 76.8 µM
Inconclusive results are not listed. Active and inactive are the calls of the source. The call rests on the fitted dose curve; in most records, active means well fitted cell-killing curve with a large enough effect in the repeat runs; inconclusive means weak or mixed curves, or effect the other way; inactive means flat fitted curve, though single readings scatter.
value_type: Potency

Record excerpt, results attached:
molecule: CC=O
Potency: 28.8 µM (active)
//
molecule: O=C1c2c(O)ccc([N+](=O)[O-])c2C(=O)c2c([N+](=O)[O-])ccc(O)c21
Potency: 48.5 µM (active)
//
molecule: CSc1ccc2c(c1)N(CCC1CCCCN1C)c1ccccc1S2 (centres undefined)
Potency: 54.7 µM (active)

Exercise: Sample O=C(Nc1ccc(Cl)c(Cl)c1)c1cc(Cl)cc(Cl)c1O — what was its Potency?
Solution: 6.92 µM (active)

---

Assay: A CellTox Green Cytotoxicity Assay to monitor cytotoxicity in HEK293 cells - 40 hour (AID 1224871); further: nearly all actives have a fitted effect of over 45% in size
Conditions: CellTox Green fluorescence; series mostly up to 76.8 µM
Source text: National Center for Advancing Translational Sciences [NCATS] NIH Chemical Genomics Center [NCGC] U.S. Environmental Protection Agency [EPA] National Institutes of Environmental Health Sciences [NIEHS] National Toxicology Program [NTP] Cell-based models are critical for drug discovery. […] Viable cells produce no appreciable increases in fluorescence. Therefore, the fluorescence signal produced by the binding interaction with dead cell DNA is proportional to cytotoxicity. […]
Records with an inconclusive call do not appear. Active and inactive are the calls of the source. Calls follow the shape of the dose curve; as a rule, active = well fitted activation curve with a large enough effect in the repeat runs; inconclusive = weak or mixed curves; inactive = flat fitted curve, though single readings scatter.
Allowed answers: 1 for active, -1 for inactive

compound: CN1CCN(C2Cc3ccccc3Sc3ccc(Cl)cc32)CC1 (stereo not drawn)
assigned_category: 1
--
compound: CCCCCCCCCCCCCCNCCO
assigned_category: 1
--
compound: CCN(CC)CCOC(=O)C1(C2CCCCC2)CCCCC1
assigned_category: 1
--
compound: CC(=O)Oc1ccc(C2(c3ccc(OC(C)=O)cc3)C(=O)Nc3ccccc32)cc1
assigned_category: -1
--
compound: CCCCCCCC/C=C/CCCOC(C)=O
assigned_category: -1

Exercise: Which outcome was assigned to CN1[C@@H]2CC[C@H]1CC(OC(=O)C(CO)c1ccccc1)C2 (stereo partly drawn) in this test?
Solution: -1

Exercise: // query: Cc1cccc(C)n1
Solution: -1

Exercise: // query: Clc1ccccc1CN1CCc2sccc2C1
Solution: -1

Exercise: // query: CC(C)=CC1CC(C)CCO1 (stereo not drawn)
Solution: -1

Exercise: // query: CC(=O)OC1CCCCC1
Solution: -1

Exercise: // query: CC(=O)OC(OC(C)=O)c1ccc([N+](=O)[O-])o1
Solution: 1

Exercise: // query: CCc1cccc(CC)c1NC(=O)C(=O)O
Solution: -1

Exercise: // query: CC1=C(/C=C/C(C)=C/C=C/C(C)=C/C(=O)Nc2ccc(O)cc2)C(C)(C)CCC1
Solution: -1

---

Target: Bile acid receptor (Homo sapiens) (UniProt Q96RI1)
Sequence (Q96RI1 whole entry, looked up): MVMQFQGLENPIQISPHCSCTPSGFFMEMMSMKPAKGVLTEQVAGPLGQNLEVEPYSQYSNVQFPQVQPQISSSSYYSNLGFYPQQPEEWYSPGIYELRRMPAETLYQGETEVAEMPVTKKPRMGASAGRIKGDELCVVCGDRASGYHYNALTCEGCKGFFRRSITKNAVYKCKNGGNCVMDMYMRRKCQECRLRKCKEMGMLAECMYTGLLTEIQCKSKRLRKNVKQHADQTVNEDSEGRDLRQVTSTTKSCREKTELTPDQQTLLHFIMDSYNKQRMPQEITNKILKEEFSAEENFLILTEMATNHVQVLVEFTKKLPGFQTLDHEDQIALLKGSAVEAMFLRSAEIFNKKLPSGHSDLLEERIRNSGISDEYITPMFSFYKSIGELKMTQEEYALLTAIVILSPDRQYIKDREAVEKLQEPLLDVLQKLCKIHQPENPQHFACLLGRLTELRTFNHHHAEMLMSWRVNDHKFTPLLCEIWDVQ
Experiment: qHTS assay to identify small molecule antagonists of the farnesoid-X-receptor (FXR) signaling pathway (AID 743217); further: potency means the concentration at half of the fitted maximal effect
Conditions: HEK293T FXR-UAS-bla, beta-lactamase ratio, CDCA-stimulated, 16 h; series mostly up to 62.6 µM
Inconclusive results are not listed. Calls of active or inactive are those of the source. Calls come from the whole dose curve; as a rule, active = well fitted inhibition curve with a large enough effect in the signal ratio in the repeat runs (not every such curve was filed as active); inconclusive = weak or mixed curves, or effect the other way; inactive = no such curve, though single readings can be large or run the other way; the % refers to the signal ratio.
value_type: Potency

Record excerpt, results attached:
compound: CCCCCCCC/C=C\CCCCCCCC(=O)NCc1ccc(O)c(OC)c1
Potency: 29.8 µM (active)
//
compound: CCCCCCCCCCCCOC(=O)c1cc(O)c(O)c(O)c1
Potency: 54.9 µM (active)
//
compound: O=C1C=CC(=O)N1c1ccccc1
Potency: 54.9 µM (active)
//
compound: COC(=O)[C@]1(C)CCC[C@@]2(C)[C@H]1CC=C1C=C(C(C)C)CC[C@@H]12
Potency: inactive
//
compound: Cc1c(C(=O)O)cccc1[N+](=O)[O-]
Potency: inactive
//
compound: O=C(O)CCCCCCC(=O)O
Potency: inactive

Exercise: Sample CCCCCCCCCC(=O)N(C)C — what was its Potency?
Solution: inactive

Exercise: // query: C=C[C@](C)(O)CC[C@@H]1[C@@]2(C)CCCC(C)(C)[C@@H]2CC[C@@]1(C)O
Solution: 49 µM (active)

Exercise: // query: O=C1c2c(O)ccc(O)c2C(=O)c2c(NCCNCCO)ccc(NCCNCCO)c21
Solution: 26.6 µM (active)

Exercise: // query: Cc1occc1SSc1ccoc1C
Solution: inactive

Exercise: // query: CC(CN(C)C)CN1c2ccccc2CCc2ccccc21 (configuration not stated)
Solution: inactive

Exercise: // query: CCOC(=O)[C@@](C)(N)Cc1ccc(O)c(O)c1
Solution: inactive

These measurements were taken from PubChem BioAssay (Tox21).
